Hey, just so you know, these numbers are from PubChem BioAssay.

Assay: S. pombe growth modifiers, basal conditions – strain 972, OD600, 24 h, no modulator, primary screen (AID 1090);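 also: basal condition with compound alone and no growth modifier present; test concentration not given here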
Conditions: S. pombe 972 growth, higher = more signal, called active from +8 up or from −8 down
Group membership follows z-score per the scheme lower level (below -0.4), middle level (-0.4 to below 0.6), upper level (0.6 or more)

Solved cases (4 shown):
{"columns": ["Compound", "Label class"],
 "data": [
  ["CC(C)C[C@@H]1NC(=O)[C@@H]2C[C@H](C(=O)NCCCCCCNC(=O)CS)[C@H](c3cccc(OCCO)c3)N2C1=O", "upper level"],
  ["COC(=O)[C@@]1(Cc2ccccc2)N=C(c2ccc(OCCCO)cc2)O[C@H]1c1ccccc1CN=[N+]=[N-]", "middle level"],
  ["CC(=O)NCCCC[C@@H]1NC(=O)[C@H]2C[C@@H](C(=O)NCCCCCCNC(=O)CS)[C@@H](c3cccc(OCCO)c3)N2C1=O", "middle level"],
  ["C=C(COC)C(=O)CC[C@@H](OC(C)=O)c1ccccc1OCCO", "lower level"]
]}

Qu. Note: place this compound into its band. Item: C[C@@H]1ON(c2ccccc2)[C@H](c2ccccc2)[C@H]1C(=O)O
Ans. middle level

Qu. Note: place this compound into its band. Item: CCCCC(=C=CC[C@H](O)c1ccc(CO)o1)CCO
Ans. lower level

Qu. Note: place this compound into its band. Item: O=C1C2C=CC(C(O)c3ccc([N+](=O)[O-])cc3)N(Nc3ccccc3F)C2C(=O)N1c1ccccc1 (centres undefined)
Ans. upper level

Qu. Note: place this compound into its band. Item: C[N+](C)(C)CCCCNC(=O)[C@H]1C[C@H]2C(=O)N[C@@H](Cc3ccccc3)C(=O)N2[C@H]1c1cccc(OCCO)c1
Ans. middle level
